tested on: M14 melanoma; experiment: NCI tumour cell line growth inhibition, 48 h
reportedEndpoint: TGI (µM)
Enter your answer as a number in µM; do not include the unit.

Recorded TGI for C[C@H](CCC(=O)NN)[C@H]1CC[C@H]2[C@@H]3CC[C@@H]4C[C@H](O)CC[C@]4(C)[C@H]3CC[C@]12C , please? 72.4

Field: next compound
Please give the measured TGI for this compound: CC12OC(=O)[C@@]3(O)CCC4C(C[C@H]5O[C@]56CC=CC(=O)[C@]46C)C45OC[C@H]6C(=O)O[C@@H]1C[C@@]6(C)[C@H](C4=O)C23O5 (some centres undefined) 4.32

From: PubChem BioAssay (NCI)
